# Test system: WiDr
# testProtocol: In vitro antitumor activity against WiDr colon carcinoma tumor cell line was determined
# Format: functional
# details: Homo sapiens, read-out: ID50 (the source's name)
measuredMetric: IC50 (µg/mL)

Examples from the recorded data:
COC1=CC(=O)c2c(c(COC(C)=O)c3n2CCC3OC(C)=O)C1=O (centres undefined) ... 0.037
COC1=CC(=O)c2c(c(CO)c3n2CCC3O)C1=O (centres undefined) ... 2.6
COC1=CC(=O)c2c(c(CO)c3n2CCCC3O)C1=O (centres undefined) ... 2.17
COC1=C(C)C(=O)c2c(c(CO)c3n2CCC3O)C1=O (centres undefined) ... 1.33

a. CCNC(=O)OCc1c2c(n3c1C(O)CCC3)C(=O)C(C)=C(OC)C2=O (centres undefined)
b. COC1=C(Br)C(=O)c2c(c(COC(C)=O)c3n2CCC3OC(C)=O)C1=O (centres undefined)
c. COC1=C(Br)C(=O)c2c(c(COC(C)=O)c3n2CCCC3OC(C)=O)C1=O (centres undefined)
d. CCNC(=O)OCc1c2c(n3c1C(O)CC3)C(=O)C=C(OC)C2=O (centres undefined)
**Query** Sort the 4 molecules by IC50; largest first, smallest last. Please list the labels according to the requested order.
**Result** c, b, a, d
(c: 6.49 µg/mL, b: 0.492 µg/mL, a: 0.251 µg/mL, d: 0.029 µg/mL)
